Tested on: MEK6;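 also: KINOMEscan kinase panel screen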
Construct: gene MAP2K6
condition-info: concentration: 1 μM, replicates: in singlicate; n = 1
attribute-measured: %Inh
Returns: string containing the numeric result and its unit.

{"columns": ["compound", "study-system", "%Inh"],
 "data": [
  ["CCc1nc(-c2cccc(C)c2)c(-c2ccnc(NCc3ccccc3)c2)s1", "MEK6", "6%"]
]}

For every item in the list below, what is its measured %Inh?
1. Nc1nc(-c2ccc3c(N)n[nH]c3c2)cc(N2CCCC2)n1 [GSK2227430]
2. CSc1ccc(-c2cc3ncnc(SCC(=O)O)c3s2)cc1
3. Cc1c2ccc(N(C)c3ccnc(Nc4cccc(S(N)(=O)=O)c4)n3)cc2nn1Cc1ccccc1.Cl.Cl [GW787226]
4. Cc1ccc(C(=O)NCC(N)=O)cc1-n1c(C)cc(OCc2ccc(F)cc2F)c(Br)c1=O
5. O=C(Nc1n[nH]c2cc(-c3cccc(F)c3)ccc12)C1CC1 [SB-735464]

-- reply
["8%", "0%", "23%", "13%", "0%"]

For every item in the list below, what is its measured %Inh?
1. COc1cc2c(cc1OC[C@@H](O)CO)ncc1c3ccc(C#N)cc3[nH]c21
2. O=C(NCCNc1ccnc(Nc2ccc(F)cc2)n1)Nc1ccccc1F [GSK1379880]
3. Cn1cc(-c2ccc3c(c2)CCN3C(=O)Cc2ccccc2Cl)c2c(N)ncnc21 [GSK2608885]

-- reply
["0%", "0%", "47%"]

For every item in the list below, what is its measured %Inh?
1. CC(C)(C)n1cnc2c(N)ncnc21 [SKF-97359]
2. O=C(NCCNc1ccnc(Nc2ccc(F)cc2)n1)c1cc2ccccc2s1 [GSK1379874]
3. Nc1nccc(-c2c(-c3ccc(F)cc3)ncn2C2CCN(CC(F)(F)F)CC2)n1 [SB-236560]
4. CN1c2ccc(CNc3ccc(F)cc3)cc2-c2c(cnn2C)S1(=O)=O

-- reply
0%
0%
0%
0%

For every item in the list below, what is its measured %Inh?
1. Cc1ccc(NC(=O)c2ccnc(N3CCN(C)CC3)c2)cc1-c1ccc(C(=O)NCC2CC2)cc1 [GW775604]
2. CN(C1=C(c2ccccc2)C(=O)NC1=O)c1ccccc1 [SB-334860]
3. NS(=O)(=O)CCc1cccc(Nc2nccc(-c3c(-c4cccc(NC(=O)c5c(F)cccc5F)c4)nn4ccccc34)n2)c1 [GSK336735]
4. Cc1nnc(-c2ccc3occ(-c4ccc(C(C)O)cc4)c3c2)o1 (stereo not shown)
5. CNc1ncnc2[nH]ncc12 [SKF-18355]
6. CC(C)Oc1ccc2c(-c3ccnc(Nc4ccc(N5CCN(C)CC5)cc4)n3)cnn2n1 [GW696155]
7. C[C@@H](Oc1cc(-n2cnc3ccc(NC(=O)NC(C)(C)C)cc32)sc1C(N)=O)c1ccccc1Cl [GSK346294]
8. O=C1NC(=O)C(N2CCc3ccccc32)=C1c1cccc(Cl)c1 [SB-408010]

-- reply
1: 11%; 2: 0%; 3: 47%; 4: 8%; 5: 10%; 6: 53%; 7: 0%; 8: 0%

For every item in the list below, what is its measured %Inh?
1. Cn1ccc2ncnc(Oc3ccc(NC(=O)Nc4ccncc4)c(Cl)c3)c21
2. COc1cc(Nc2nccc(N3CCC(NC(=O)c4cccc(NC(C)=O)c4)C3)n2)cc(OC)c1OC (stereo not shown) [GSK1379754]
3. NS(=O)(=O)c1cccc(-c2ccc3nccc(-c4cccc(S(N)(=O)=O)c4)c3c2)c1 [GW867253]
4. c1ccc(-c2cc(-c3c[nH]nc3-c3ccccn3)ccn2)cc1 [GW576604]

-- reply
1: 0%; 2: 0%; 3: 7%; 4: 0%
